- Test system: NMRI mice
- assay_explanation: In vivo activity: serum and femur calcium after 7 daily i.p. injections
- run_parameters: dose 0.2 μg/kg/d i.p., 7 days; * in cell = P < 0.05
Recorded Serum calcium vs. control (%) by entry

smiles_text	Serum calcium vs. control (%)
C=C1/C(=C\C=C\[C@@H]2CC[C@](C)([C@@H](C)CC[C@H](O)C(C)C)C2(C)C)C[C@@H](O)C[C@@H]1O	98
C[C@H](CC#CC(O)(C(F)(F)F)C(F)(F)F)[C@@]1(C)CC[C@@H](/C=C/C=C2C[C@@H](O)C[C@H](O)C2)C1(C)C	97
C=C1/C(=C\C=C\[C@@H]2CC[C@](C)([C@@H](C)CC#CC(O)(C(F)(F)F)C(F)(F)F)C2(C)C)C[C@@H](O)C[C@@H]1O	103

* * *

- system: human vitamin D binding protein (hDBP) (Homo sapiens)
- Sequence (P02774 17-474): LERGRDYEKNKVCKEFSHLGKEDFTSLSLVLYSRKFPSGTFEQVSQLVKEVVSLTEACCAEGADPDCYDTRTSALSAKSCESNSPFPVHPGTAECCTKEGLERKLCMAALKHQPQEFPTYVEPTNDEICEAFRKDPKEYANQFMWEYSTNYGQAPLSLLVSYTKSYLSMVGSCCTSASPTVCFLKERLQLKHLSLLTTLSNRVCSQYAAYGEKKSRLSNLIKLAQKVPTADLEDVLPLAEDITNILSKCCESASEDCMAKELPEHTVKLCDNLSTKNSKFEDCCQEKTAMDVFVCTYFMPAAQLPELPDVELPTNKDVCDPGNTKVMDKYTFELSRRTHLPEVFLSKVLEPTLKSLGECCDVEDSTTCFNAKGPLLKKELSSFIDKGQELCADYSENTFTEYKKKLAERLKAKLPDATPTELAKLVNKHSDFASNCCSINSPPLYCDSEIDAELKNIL
- assay_explanation: Affinity for human vitamin D binding protein
- run_parameters: hDBP 0.18 μM, 4° C. 3 hours; 1,25(OH)2D3 = 100
- Description: Binding of 1α,25(OH)2D3 analogues to hDBP was performed at 4° C. […] Phase separation was then obtained by the addition of 0.5 ml of cold dextran-coated charcoal.
measured_quantity: DBP (relative affinity) (%)

> print(dat)
                                   molecule        measured.quantity  comparative.sign  measured
1  C=C1/C(=C\C=C\[C@@H]2CC[C@](C)([C@@H](C)CC#CC(O)(C(F)(F)F)C(F)(F)F)C2(C)C)C[C@@H](O)C[C@@H]1O  DBP (relative affinity)                 =         2
2  C=C1/C(=C\C=C\[C@@H]2CC[C@](C)([C@@H](C)CCCC(O)(C(F)(F)F)C(F)(F)F)C2(C)C)C[C@@H](O)C[C@@H]1O  DBP (relative affinity)                 =         6
3  CC(C)[C@H](O)CC[C@H](C)[C@@]1(C)CC[C@@H](/C=C/C=C2C[C@@H](O)C[C@H](O)C2)C1(C)C (stereo in doubt) [example 19]  DBP (relative affinity)                 =         4
4  CCC(O)(CC)CCC[C@H](C)[C@@]1(C)CC[C@@H](/C=C/C=C2C[C@@H](O)C[C@H](O)C2)C1(C)C  DBP (relative affinity)                 <       0.1

Numbers sourced from patent US7704986B2.
